settings: a range is the spread between reports
# melting point annotations

[
  {
    "Compound": "C=COCC",
    "melting point": "-116 to -115 °C"
  },
  {
    "Compound": "O=C(c1ccccc1)c1cccc(C(F)(F)F)c1",
    "melting point": "52 to 52.5 °C"
  },
  {
    "Compound": "O=C[C@H](O)[C@@H](O)[C@@H](O)[C@H](O)CO",
    "melting point": "166 to 167 °C"
  },
  {
    "Compound": "C=CCNCC=C",
    "melting point": "-88.4 to -88 °C"
  },
  {
    "Compound": "CCN(CC)c1ccccc1",
    "melting point": "-38.8 to -38 °C"
  },
  {
    "Compound": "Cc1ccc(C(=O)Cl)cc1",
    "melting point": "-3 to -2 °C"
  },
  {
    "Compound": "O=S(=O)(Cl)c1ccc(Cl)cc1",
    "melting point": "51 to 52 °C"
  },
  {
    "Compound": "N#Cc1c(F)cccc1F",
    "melting point": "30 to 31 °C"
  },
  {
    "Compound": "O=C(Cl)N(c1ccccc1)c1ccccc1",
    "melting point": "83 to 84 °C"
  },
  {
    "Compound": "FC(F)(F)CC(F)(F)F",
    "melting point": "-98 to -94.2 °C"
  }
]

**Query** Give its melting point value. Item: O=[N+]([O-])c1ccccc1SSc1ccccc1[N+](=O)[O-]
**Result** 194 to 196 °C

**Query** Which melting point is reported for this compound? CS(=O)c1ccccc1 (stereo not given)
**Result** 29 to 32 °C

**Query** So what's the measured melting point for this one? CCCCCCCCC(C)O (stereo not given)
**Result** -5 to -2 °C

**Query** Give its melting point value. Item: Fc1ccccc1
**Result** -42.2 to -40 °C

**Query** # input compound: O=C(OCc1ccccc1)c1ccccc1 ; wanted: its melting point
**Result** 18 to 21 °C
